Target: T1, Solute carrier family 35 member A5 (SLC35A5), eGFP fusion (human, UniProt Q9BS91 1-424)
T1 construct: SLC35A5, putative nucleotide sugar transporter; expressed from the plasmid pTag-GFP2-C-A5; FRET donor in every pair; In the pair A5 + A5 the second copy carried mRFP (pTag-RFP-C-SLC35A construct) in place of eGFP; also called pTag-GFP2-C-A5; source: HEK293T, transiently transfected, in living cells
T1 sequence (looked up): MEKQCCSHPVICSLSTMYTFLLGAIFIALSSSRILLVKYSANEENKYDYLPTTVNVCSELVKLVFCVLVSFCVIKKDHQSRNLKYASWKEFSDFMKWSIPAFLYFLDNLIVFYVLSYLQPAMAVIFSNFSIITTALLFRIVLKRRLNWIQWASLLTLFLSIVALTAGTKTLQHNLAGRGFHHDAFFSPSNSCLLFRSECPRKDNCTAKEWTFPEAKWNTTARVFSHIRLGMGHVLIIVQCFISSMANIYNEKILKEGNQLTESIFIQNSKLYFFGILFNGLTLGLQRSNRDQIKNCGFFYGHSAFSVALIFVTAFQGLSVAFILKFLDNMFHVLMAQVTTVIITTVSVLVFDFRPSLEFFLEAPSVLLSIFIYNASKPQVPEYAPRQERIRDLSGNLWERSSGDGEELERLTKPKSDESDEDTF
Assay: FRET or BRET; FLIM/FRET in living HEK293T cells transiently co-transfected, analysed 48 h after transfection in FluoroBrite DMEM; SLC35A5-eGFP as donor, mRFP-tagged SLC35A proteins as acceptors; eGFP lifetime of the donor alone 2.70 ns
Conditions: partners not purified
MEASURED PROPERTY: eGFP fluorescence lifetime of the donor with the acceptor (donor alone 2.70 ns)
One number for each entry, in ns.

## Input Sample UDP-N-acetylglucosamine transporter (SLC35A3), mRFP fusion (natural protein, UniProt Q9Y2D2 1-325, looked up, SLC35A3, UDP-N-acetylglucosamine transporter; expressed from a pTag-RFP-C-SLC35A construct; FRET acceptor; source: HEK293T, transiently transfected, in living cells) MFANLKYVSLGILVFQTTSLVLTMRYSRTLKEEGPRYLSSTAVVVAELLKIMACILLVYKDSKCSLRALNRVLHDEILNKPMETLKLAIPSGIYTLQNNLLYVALSNLDAATYQVTYQLKILTTALFSVSMLSKKLGVYQWLSLVILMTGVAFVQWPSDSQLDSKELSAGSQFVGLMAVLTACFSSGFAGVYFEKILKETKQSVWIRNIQLGFFGSIFGLMGVYIYDGELVSKNGFFQGYNRLTWIVVVLQALGGLVIAAVIKYADNILKGFATSLSIILSTLISYFWLQDFVPTSVFFLGAILVITATFLYGYDPKPAGNPTKA — what was its eGFP fluorescence lifetime of the donor with the acceptor (donor alone 2.70 ns)?
## Output 2.35
